Assayed System: SHP2 (Homo sapiens)
Construct: purchased Sigma-Aldrich
Sequence (Q06124 whole entry): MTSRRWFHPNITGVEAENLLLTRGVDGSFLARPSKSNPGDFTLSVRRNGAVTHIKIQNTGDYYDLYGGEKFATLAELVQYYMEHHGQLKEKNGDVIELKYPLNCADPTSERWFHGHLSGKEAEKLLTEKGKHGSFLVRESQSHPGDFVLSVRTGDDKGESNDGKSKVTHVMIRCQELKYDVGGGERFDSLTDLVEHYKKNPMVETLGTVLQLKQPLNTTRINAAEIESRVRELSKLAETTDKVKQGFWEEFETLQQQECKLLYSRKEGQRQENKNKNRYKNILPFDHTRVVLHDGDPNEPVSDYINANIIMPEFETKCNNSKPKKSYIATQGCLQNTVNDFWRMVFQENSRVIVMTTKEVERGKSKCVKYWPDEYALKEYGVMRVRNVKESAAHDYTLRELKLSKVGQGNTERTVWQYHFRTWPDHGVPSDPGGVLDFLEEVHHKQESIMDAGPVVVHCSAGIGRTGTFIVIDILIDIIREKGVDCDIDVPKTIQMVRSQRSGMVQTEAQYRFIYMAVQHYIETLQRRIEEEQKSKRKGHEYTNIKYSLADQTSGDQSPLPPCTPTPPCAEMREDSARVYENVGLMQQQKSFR
Assay Notes: Inhibition of human recombinant tyrosine phosphatase SHP2 (DiFMUP fluorescence)
Assay type: biochemical
Protocol Conditions: 1 µM; control solvent only; SD did not exceed 6%
Here, each record is paired with measured Inhibition of SHP2, percentage of inhibition of the control data.
Form entry: value (%) — number only.

Reported Inhibition of SHP2, percentage of inhibition of the control, compound Cc1occc(=O)c1[O-].Cc1occc(=O)c1[O-].[O]=[V+2] [BMOV, bis(maltolato)oxidovanadium(IV), reference compound] : ____
82

Queued: [O]=[V]1[O]C(c2ccc(Cl)cc2)=NN=Cc2cc(Br)ccc2[O]1.c1cnc2c(c1)ccc1cccnc12 [VC050, [VO(L11)(phen)]]
57

Follow-up item: CC(CC(=S)Nc1ccccc1)=NC(Cc1c[nH]c2ccccc12)C(=O)[O][V](=[O])([Cl])[Cl] (stereo not drawn) [VC054, [VOCl2(L1)]·1.5Et2O ·6.5HCl]
87

// same read-out, input: COc1ccc(C(=O)NN=Cc2cc(Br)ccc2[O][V]2[O]C(c3ccc(OC)cc3)=NN=Cc3cc(Br)ccc3[O]2)cc1 [VC055, [V(L11)(HL11)]]
57

Now the same for O.[O]=[V]1[O]C(c2ccccc2O)=NN=Cc2cc(Br)ccc2[O]1.c1cnc2c(c1)ccc1cccnc12 [VC013, [VO(L6)(phen)]⋅H2O]
74

What do you get for CC(CC(=S)Nc1ccccc1)=NC(CC(C)C)C(=O)[O][V](=[O])([Cl])[Cl] (stereo not drawn) [VC070, [VOCl2(L3)]·0.5Et2O·3HCl] ?
88

What would you report for O.[O]=[V]1[O]C(c2ccc(O)cc2)=NN=Cc2cc(Br)ccc2[O]1.c1cnc2c(c1)ccc1cccnc12 [VC046, [VO(L9)(phen)]⋅2H2O] ?
66

And O=C(NN=Cc1cc(Br)ccc1[O][V]1[O]C(c2cc3ccccc3cc2O)=NN=Cc2cc(Br)ccc2[O]1)c1cc2ccccc2cc1O [VC067, [V(L12)(HL12)]] ?
74

What do you have for CC(CC(=S)Nc1ccccc1)=NC(Cc1ccccc1)C(=O)[O][V](=[O])([Cl])[Cl] (stereo not drawn) [VC059, [VOCl2(L2)]·0.5Et2O·1.5HCl] ?
87

Same question, O=C(NN=Cc1cc(Br)ccc1[O-])c1ccc([N+](=O)[O-])cc1.O=[N+]([O-])c1ccc(C([O-])=NN=Cc2cc(Br)ccc2[O-])cc1.[V+3] [VC068, [V(L13)(HL13)]] this time
74

Similarly, C1CCOC1.CSCCC1C(=O)[O][V](=[O])([Cl])([Cl])[N]1C(C)=CC(=S)Nc1ccccc1.Cl (stereo not drawn) [VC073, [VOCl2(L4)]·1.5THF·3HCl] ?
86

Another compound to look at: O=C(NN=Cc1cc(Br)ccc1[O][V]1[O]C(c2ccccc2O)=NN=Cc2cc(Br)ccc2[O]1)c1ccccc1O [VC029, [V(L7)(HL7)]]
68

* * *

Assayed System: SHP1 (Homo sapiens)
Construct: purchased Sigma-Aldrich
Sequence (P29350 whole entry): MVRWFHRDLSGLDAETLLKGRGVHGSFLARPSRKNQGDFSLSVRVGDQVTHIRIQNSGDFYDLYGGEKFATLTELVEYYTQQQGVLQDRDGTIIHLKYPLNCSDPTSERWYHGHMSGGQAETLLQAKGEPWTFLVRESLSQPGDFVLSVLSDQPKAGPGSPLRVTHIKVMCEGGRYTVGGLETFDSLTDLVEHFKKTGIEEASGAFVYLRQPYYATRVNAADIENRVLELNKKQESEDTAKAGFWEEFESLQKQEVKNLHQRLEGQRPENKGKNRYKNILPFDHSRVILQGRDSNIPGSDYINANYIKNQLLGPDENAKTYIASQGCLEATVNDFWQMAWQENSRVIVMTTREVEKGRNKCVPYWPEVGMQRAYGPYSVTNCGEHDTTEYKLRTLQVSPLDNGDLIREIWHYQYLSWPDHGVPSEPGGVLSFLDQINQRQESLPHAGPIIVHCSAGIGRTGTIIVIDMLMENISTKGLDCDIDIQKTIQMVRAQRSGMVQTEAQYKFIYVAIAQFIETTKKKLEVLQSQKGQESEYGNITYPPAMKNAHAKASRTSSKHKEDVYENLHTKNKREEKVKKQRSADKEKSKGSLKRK
Assay Notes: Inhibition of human recombinant tyrosine phosphatase SHP1 (DiFMUP fluorescence)
Type: biochemical
Protocol Conditions: logarithm of IC50
Log IC50 ± SD SHP1 by entry:
// return just the number, without any unit appended

Below, 3 compounds whose answers are already recorded.
1) [O]=[V]1[O]C(c2ccc(Cl)cc2)=NN=Cc2cc(Br)ccc2[O]1.c1cnc2c(c1)ccc1cccnc12 [VC050, [VO(L11)(phen)]] ... −6.18
2) CC(CC(=S)Nc1ccccc1)=NC(Cc1c[nH]c2ccccc12)C(=O)[O][V](=[O])([Cl])[Cl] (stereo not drawn) [VC054, [VOCl2(L1)]·1.5Et2O ·6.5HCl] ... −7.56
3) O=S(=O)([O-])[O-].[O]=[V+2] [VOSO4, reference compound] ... −7.77

Any idea what Log IC50 ± SD SHP1 was measured for CC(CC(=S)Nc1ccccc1)=NC(Cc1ccccc1)C(=O)[O][V](=[O])([Cl])[Cl] (stereo not drawn) [VC059, [VOCl2(L2)]·0.5Et2O·1.5HCl] ?
−7.59

Would you kindly repeat that for O=C(NN=Cc1cc(Br)ccc1[O-])c1ccc([N+](=O)[O-])cc1.O=[N+]([O-])c1ccc(C([O-])=NN=Cc2cc(Br)ccc2[O-])cc1.[V+3] [VC068, [V(L13)(HL13)]] ?
−6.29

Queued: Cc1occc(=O)c1[O-].Cc1occc(=O)c1[O-].[O]=[V+2] [BMOV, bis(maltolato)oxidovanadium(IV), reference compound]
−7.86

* * *

Assayed System: CDC25A (Homo sapiens)
Construct: purchased Sigma-Aldrich
Sequence (P30304 whole entry): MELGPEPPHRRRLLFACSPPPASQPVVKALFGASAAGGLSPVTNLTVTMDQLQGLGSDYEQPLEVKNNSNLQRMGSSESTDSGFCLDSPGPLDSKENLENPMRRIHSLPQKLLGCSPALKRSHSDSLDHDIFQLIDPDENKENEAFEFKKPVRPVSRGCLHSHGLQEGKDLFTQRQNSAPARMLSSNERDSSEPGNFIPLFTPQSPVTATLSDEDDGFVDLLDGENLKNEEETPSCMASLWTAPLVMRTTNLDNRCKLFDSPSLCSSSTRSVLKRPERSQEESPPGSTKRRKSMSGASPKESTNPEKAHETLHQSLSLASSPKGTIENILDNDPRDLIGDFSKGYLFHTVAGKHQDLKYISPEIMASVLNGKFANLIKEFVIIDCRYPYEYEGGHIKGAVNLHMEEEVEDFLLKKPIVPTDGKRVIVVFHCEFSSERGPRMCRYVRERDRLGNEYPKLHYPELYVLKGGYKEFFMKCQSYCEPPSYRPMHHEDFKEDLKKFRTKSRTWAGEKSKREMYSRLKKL
Assay Notes: Inhibition of human recombinant non-tyrosine phosphatase CDC25A (3-O-methylfluorescein phosphate)
Format: biochemical
Protocol Conditions: 1 µM
Metric: Inhibition of CDC25A, percentage inhibition of control ± SD (%)
Quick note: give the figure in %, leave out the unit.

1) O=C(NN=Cc1cc(Br)ccc1[O-])c1ccc([N+](=O)[O-])cc1.O=[N+]([O-])c1ccc(C([O-])=NN=Cc2cc(Br)ccc2[O-])cc1.[V+3] [VC068, [V(L13)(HL13)]] ... 54
2) O=S(=O)([O-])[O-].[O]=[V+2] [VOSO4, reference compound] ... 54
3) [O]=[V]1[O]C(c2ccc(Cl)cc2)=NN=Cc2cc(Br)ccc2[O]1.c1cnc2c(c1)ccc1cccnc12 [VC050, [VO(L11)(phen)]] ... 12

Please look up its Inhibition of CDC25A, percentage inhibition of control ± SD: CC(CC(=S)Nc1ccccc1)=NC(Cc1ccccc1)C(=O)[O][V](=[O])([Cl])[Cl] (stereo not drawn) [VC059, [VOCl2(L2)]·0.5Et2O·1.5HCl]
55

Now consider Cc1occc(=O)c1[O-].Cc1occc(=O)c1[O-].[O]=[V+2] [BMOV, bis(maltolato)oxidovanadium(IV), reference compound] and answer again.
54

Proceed to CC(CC(=S)Nc1ccccc1)=NC(Cc1c[nH]c2ccccc12)C(=O)[O][V](=[O])([Cl])[Cl] (stereo not drawn) [VC054, [VOCl2(L1)]·1.5Et2O ·6.5HCl]
51

* * *

# Inhibition of SHP1, percentage of inhibition of the control per entry
Assayed System: SHP1 (Homo sapiens)
Construct: purchased Sigma-Aldrich
Assay Notes: Inhibition of human recombinant tyrosine phosphatase SHP1 (DiFMUP fluorescence)
Type: biochemical
Protocol Conditions: 1 µM; control solvent only; SD did not exceed 6%
Quote the value and follow it with the unit of measurement.

Recorded Inhibition of SHP1, percentage of inhibition of the control, per entry:
1) O.[O]=[V]1[O]C(c2ccc(O)cc2)=NN=Cc2cc(Br)ccc2[O]1.c1cnc2c(c1)ccc1cccnc12 [VC046, [VO(L9)(phen)]⋅2H2O] ... 62%
2) O=S(=O)([O-])[O-].[O]=[V+2] [VOSO4, reference compound] ... 70%
3) CC(C)(C)c1ccc(C2=NN=Cc3cc(Br)ccc3[O][V](=[O])[O]2)cc1.O.c1cnc2c(c1)ccc1cccnc12 [VC048, [VO(L10)(phen)]⋅0.5H2O] ... 62%
4) Cc1occc(=O)c1[O-].Cc1occc(=O)c1[O-].[O]=[V+2] [BMOV, bis(maltolato)oxidovanadium(IV), reference compound] ... 76%
5) O.O=C(NN=Cc1cc(Br)ccc1[O][V]1[O]C(c2ccccc2)=NN=Cc2cc(Br)ccc2[O]1)c1ccccc1 [VC032, [V(L8)(HL8)]⋅H2O] ... 44%
6) O=C(NN=Cc1cc(Br)ccc1[O][V]1[O]C(c2cc3ccccc3cc2O)=NN=Cc2cc(Br)ccc2[O]1)c1cc2ccccc2cc1O [VC067, [V(L12)(HL12)]] ... 70%

Kindly review the next compound as well.
What value of Inhibition of SHP1, percentage of inhibition of the control has been reported for the following compound? CC(CC(=S)Nc1ccccc1)=NC(Cc1c[nH]c2ccccc12)C(=O)[O][V](=[O])([Cl])[Cl] (stereo not shown) [VC054, [VOCl2(L1)]·1.5Et2O ·6.5HCl]
84%

* * *

Assayed System: PTP1B (Homo sapiens, UniProt P18031)
Construct: purchased Sigma-Aldrich
Sequence (P18031 whole entry): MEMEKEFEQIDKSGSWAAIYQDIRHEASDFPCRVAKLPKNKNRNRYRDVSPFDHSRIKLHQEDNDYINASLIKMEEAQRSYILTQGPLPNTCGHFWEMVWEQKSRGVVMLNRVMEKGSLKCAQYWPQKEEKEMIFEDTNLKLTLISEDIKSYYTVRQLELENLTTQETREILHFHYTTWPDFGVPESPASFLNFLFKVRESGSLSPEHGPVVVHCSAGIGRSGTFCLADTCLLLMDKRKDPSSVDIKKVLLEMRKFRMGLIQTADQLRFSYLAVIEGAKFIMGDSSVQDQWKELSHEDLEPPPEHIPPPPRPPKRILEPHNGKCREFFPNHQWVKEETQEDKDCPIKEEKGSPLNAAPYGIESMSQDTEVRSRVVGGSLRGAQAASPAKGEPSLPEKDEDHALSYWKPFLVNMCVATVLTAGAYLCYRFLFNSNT
Assay Notes: Inhibition of human recombinant tyrosine phosphatase PTP1B (DiFMUP fluorescence)
Format: biochemical
Protocol Conditions: read-out: IC50 PTP1B
Metric: IC50 (µM)
Response body: numeric value in µM, unit text excluded.

Recorded results for 5 compounds are shown here.
1. O=S(=O)([O-])[O-].[O]=[V+2] [VOSO4, reference compound] ... 0.099
2. O=C(NN=Cc1cc(Br)ccc1[O-])c1ccc([N+](=O)[O-])cc1.O=[N+]([O-])c1ccc(C([O-])=NN=Cc2cc(Br)ccc2[O-])cc1.[V+3] [VC068, [V(L13)(HL13)]] ... 2.03
3. CC(CC(=S)Nc1ccccc1)=NC(Cc1c[nH]c2ccccc12)C(=O)[O][V](=[O])([Cl])[Cl] (stereo not drawn) [VC054, [VOCl2(L1)]·1.5Et2O ·6.5HCl] ... 0.141
4. [O]=[V]1[O]C(c2ccc(Cl)cc2)=NN=Cc2cc(Br)ccc2[O]1.c1cnc2c(c1)ccc1cccnc12 [VC050, [VO(L11)(phen)]] ... 4.26
5. Cc1occc(=O)c1[O-].Cc1occc(=O)c1[O-].[O]=[V+2] [BMOV, bis(maltolato)oxidovanadium(IV), reference compound] ... 0.149

Here's the next entry for you.
Name the reported IC50 value associated with the compound CC(CC(=S)Nc1ccccc1)=NC(Cc1ccccc1)C(=O)[O][V](=[O])([Cl])[Cl] (stereo not drawn) [VC059, [VOCl2(L2)]·0.5Et2O·1.5HCl]
0.107
